# SYSTEM TESTED: pooled human IgG
REPORTED METRIC: Enzyme Activity Endpoint Assay (purified): Fc (ng/µL)
State the answer as a number, implicitly in ng/µL.

INSERT INTO results (protein, reported_result) VALUES
  ('PRT-124 (protein) MRNATEAYAKEVPHQITSVWTKGVTPLTPEQFRYNNEDVIHAPYLAHQGWYDITKTFDGKDNLLCGAATAGNMLHWWFDQNKTEIEAYLSKHPEKQKIIFNNQELFDLKAAIDTKDSQTNSQLFNYFRDKAFPNLSARQLGVMPDLVLDMFINGYYLNVFKTQSTDVNRPYQDKDKRGGIFDAVFTRGDQTTLLTARHDLKNKGLNDISTIIKQELTEGKALALSHTYANVSISHVINLWGADFNAEGNLEAIYVTDSDANASIGMKKYFVGVNAHGKVAISAKKIEGENIGAQVLGLFTLSSGKDIWQKLS', 202);

Shifting focus to the protein that follows.
Item under review: PRT-265 (protein) MVTSVWTKGVTPPTNFTYGEDVLHAPYVANQGWYDITKLFNGKDNLLCGAATAGNMLHWWFDQNKEQIENYLKKHPEKQKINFNGEQLFDVKEAIDTKDSQLDSKLFEYFLEKAFPYLSTKHLGVFPDHVIDMFINGYRLSLTNHGPTPVKRGSKDKRGGIFDAVFTRGVQSKLLTNRHDFKEKTLKEISDLIKQELTEGKALGISHTYANVRINHVINLWGADFDAEGNLEAIAVTDSDTNASIGMKKYFVGVNSSGKVAISAKEIEEDNIGAQVLGLFTLSTGQDIWNQTN . Reported Enzyme Activity Endpoint Assay (purified): Fc?
3
